Source listed as ChEMBL document CHEMBL1201862.

- Tested on: COLO 205
- TEST_DETAILS: NCI tumour cell line growth inhibition, 48 h
Activity calls are given as the source filed them. Rule as the data show it: active = GI50 up to about 1.1 µM and inactive = higher.
PROPERTY_LABEL: GI50

Example results:
SMILES_DATA | OBSERVED
O=C(/C=C/c1ccc2c(c1)OCO2)CC(=O)/C=C/c1ccc2c(c1)OCO2 | > 100 µM (inactive)
O=C(/C=C/c1ccccc1O)CC(=O)/C=C/c1ccccc1O | 3.95 µM (inactive)
Cc1cc(-c2nc3c(O)cccc3s2)ccc1N | 38.7 µM (inactive)
CC(C)(C)C(=O)CP(=O)(O)O | > 100 µM (inactive)
Fc1cc(F)c(F)c(S)c1F | > 100 µM (inactive)

Input: Report GI50 for "CC(C)[Si](OC1=CCC[C@H]2NC(=O)[C@@H](Cc3ccccc3)[C@@]12C)(C(C)C)C(C)C" please.
Output: 2.33 µM (inactive)

Input: Name the recorded GI50 for "O=c1c(C(c2ccc([N+](=O)[O-])cc2)c2c(O)oc3ccccc3c2=O)c(O)oc2ccccc12" .
Output: > 100 µM (inactive)

Input: Which GI50 is listed for "COc1ccc2[nH]c3c(C)c4cnccc4c(C)c3c2c1" ?
Output: 1.58 µM (inactive)

Input: What GI50 value was documented for this compound, "O=C1/C(=C/c2ccccc2)CN(C(=O)CCN2CCCC2)C/C1=C\c1ccccc1" ?
Output: 1.53 µM (inactive)
